Tested on: Escherichia coli TOP10;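 further: peptides expressed intracellularly from a pBAD plasmid library in pooled LB shake-flask culture, induced with 0.3% L-arabinose, DNA abundance read by NGS, three biological replicates, DESeq2 with apeglm shrinkage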
Test Details: shrunken log2 fold change of peptide-encoding DNA abundance (4.5 h post-induction vs induction); higher = less antimicrobial activity (less host growth inhibition)
Conditions Used: time post-induction: 4.5 h; library: site-saturation at positions 5, 18, 19, 20
Categorized via shrunken log2 fold change: bucket A = under -0.2, bucket B = from -0.2 up to 0.1, bucket C = 0.1 and over

Example entries and their recorded answers appear below.
| Ordered Residues | Classification |
| --- | --- |
| RRIRWRPPRLPRPRPRPLPKPRP | bucket C |
| RRIRIRPPRLPRPRPRPTYGPRP | bucket A |
| RRIRMRPPRLPRPRPRPWMPPRP | bucket B |
| RRIRMRPPRLPRPRPRPEWFPRP | bucket B |
| RRIRPRPPRLPRPRPRPGNSPRP | bucket B |
| RRIRGRPPRLPRPRPRPETDPRP | bucket C |

Where would RRIRQRPPRLPRPRPRPSLDPRP land among the classes by reported shrunken log2 fold change?
bucket A

Sort into band: RRIRMRPPRLPRPRPRPLQTPRP
bucket C
